System: NIE cells
Labelling: LD50 reported below 9 µM becomes 1.0; at or above becomes 0.0.

Examples from the recorded data:
> print(dat)
                                   molecule  discrete.label
1  CNc1ccc2nc3ccc(N(C)C)cc3[s+]c2c1 [Azure B, reference compound]             1.0
2  CCN(CC)c1ccc2nc3ccc(N(CC)CC)cc3[s+]c2c1 [ETC, Ethyl-thioninium chloride]             0.0
3  COc1cc(O)c2c(=O)c(O)c(-c3ccc(O)c(O)c3)oc2c1 [Rhamnetin, reference compound]             0.0

Now consider the entry below.
Take the molecule Cc1cc2nc3ccc(N(C)C)cc3[s+]c2cc1N [Tolonium chloride, Tolonium Chloride] and say whether its LD50 is less than 9 µM.
1.0

====

Target: assembled fsyn (full-length α-synuclein) (Homo sapiens, UniProt P37840)
Construct: Full-length α-synuclein (syn) was expressed without a tag, and purified by ion exchange chromatography; made in house; host or cells: E. coli
Experiment: Fluorescence assay of disruption of assembled fsyn (thioflavine T / primulin)
Assay type: biochemical
Settings: fsyn-14, primulin; assembled 47 h with heparin, compound 1 h; read-out: P50 for inhibition of α-synuclein-dependent fluorescence
attribute measured: IC50 (µM)
Give the value, in units of µM, as a plain number.

> print(dat)
                                   molecule                         system.under.test  attribute.measured  units.symbol  readout.value
1  CN(C)c1ccc2nc3ccc(N(C)C)cc3[s+]c2c1 [MTC, methyl-thioninium chloride]  assembled fsyn (full-length α-synuclein) (Homo sapiens, UniProt P37840)                IC50            µM           23.5

Here is the next item to consider.
# lookup: IC50 of CCN(CC)c1ccc2nc3ccc(N(CC)CC)cc3[s+]c2c1 [ETC, Ethyl-thioninium chloride]
30.6

====

Each entry below carries its reported log10 of IC50.
Target: α-synuclein (fsyn binding to solid phase tsyn) (Homo sapiens, UniProt P37840)
Construct: full-length α-synuclein (fsyn) was added in the aqueous phase; The core aggregation domain of α-synuclein (amino acids 31-109) was expressed with an N-terminal polyhistidine tag; polyhistidine (N); made in house; host or cells: E. coli
Assay: Solid phase ELISA assay for synuclein-synuclein binding
Conditions: 1 μM tsyn-16 (solid phase), 5 μM fsyn-20 (aqueous phase), 50 mM sodium phosphate pH 6.0, 20 mM NaCl; read-out: B50 (μM) in α-synuclein binding assay
A difference of one corresponds to tenfold IC50; all values are log10 with IC50 in µM.

> print(dat)
                                   compound  readout.value
1  O=c1c(O)c(-c2ccc(O)c(O)c2)oc2ccccc12 [3,3′,4′-Trihydroxy-flavone, reference compound]           1.63
2  CCN(CC)c1ccc2nc3ccc(N(CC)CC)cc3[s+]c2c1 [ETC, Ethyl-thioninium chloride]           0.58
3  Cc1cc2nc3ccc(N(C)C)cc3[s+]c2cc1N [Tolonium chloride, Tolonium Chloride]           0.52
4  Cc1c(-c2ccccc2)oc2cc(O)ccc2c1=O [7-hydroxy-3-methyl-flavone, reference compound]           2.15
5  O=c1c(O)c(-c2cc(O)c(O)c(O)c2)oc2cc(O)ccc12 [Robinetin, reference compound]           1.59
6  COc1cc(O)c2c(=O)c(O)c(-c3ccc(O)c(O)c3)oc2c1 [Rhamnetin, reference compound]           1.06
7  O=c1cc(-c2ccccc2)oc2cc(O)c(O)c(O)c12 [Baicalein, reference compound]           0.40
8  COc1cc(-c2oc3cc(O)ccc3c(=O)c2O)ccc1O [Geraldol, reference compound]           1.78

# lookup: log10 of IC50 of O=c1c(O)c(-c2ccc(O)c(O)c2)oc2cc(O)ccc12 [Fisetin, reference compound]
1.95

Try the compound CN(C)c1ccc2nc3ccc(N(C)C)cc3[s+]c2c1 [MTC, methyl-thioninium chloride]
2.12

====

Molecular target: α-synuclein (SSFsyn) in NIE-115 cells (Homo sapiens)
Test: Cell based assay for α-synuclein aggregation (SSFsyn in NIE-115 cells differentiated with dbcAMP, immunoblot mAb 42)
Settings: ratio of α-synuclein to non-specific band falls to 50% of dbcAMP alone; immunoblot mAb 42; read-out: EC50, inhibition of FSyn expression in NIE cells differentiated with dbcAMP
attribute measured: pEC50
Expect pEC50 as a plain number equal to -log10 of the molar concentration.

> print(dat)
                                   compound                         system.under.test  readout.value
1  CCN(CC)c1ccc2nc3ccc(N(CC)CC)cc3[s+]c2c1 [ETC, Ethyl-thioninium chloride]  α-synuclein (SSFsyn) in NIE-115 cells (Homo sapiens)           7.10
2  CNc1ccc2nc3ccc(N(C)C)cc3[s+]c2c1 [Azure B, reference compound]  α-synuclein (SSFsyn) in NIE-115 cells (Homo sapiens)           6.60

Here is the next item to consider.
# lookup: pEC50 of CN(C)c1ccc2nc3ccc(N)cc3[s+]c2c1 [Azure A, reference compound]
6.49

====

Biological target: α-synuclein (fsyn binding to solid phase tsyn) (Homo sapiens, UniProt P37840)
Construct: full-length α-synuclein (fsyn) was added in the aqueous phase; The core aggregation domain of α-synuclein (amino acids 31-109) was expressed with an N-terminal polyhistidine tag; polyhistidine (N); made in house; host or cells: E. coli
Assay: Solid phase ELISA assay for synuclein-synuclein binding
attribute measured: pIC50
Expect pIC50 as a plain number equal to -log10 of the molar concentration.

# lookup: pIC50 of O=c1cc(-c2ccccc2)oc2cc(O)ccc12 [7-Hydroxy-flavone, reference compound]
4.45

====

Biological target: assembled tsyn (core aggregation domain of α-synuclein, amino acids 31-109) (Homo sapiens, UniProt P37840)
Construct: The core aggregation domain of α-synuclein (amino acids 31-109) was expressed with an N-terminal polyhistidine tag; polyhistidine (N); made in house; host or cells: E. coli
Experiment: Fluorescence assay of disruption of assembled tsyn (thioflavine T / primulin)
Format: biochemical
Details: assembled tsyn, primulin 5.0 μM; read-out: P50 (mean), effect of fluorophore concentration
attribute measured: IC50 (µM)
Give the value, in units of µM, as a plain number.

> print(dat)
                                   molecule  attribute.measured  readout.value
1  CCN(CC)c1ccc2nc3ccc(N(CC)CC)cc3[s+]c2c1 [ETC, Ethyl-thioninium chloride]                IC50           32.3

# lookup: IC50 of CN(C)c1ccc2nc3ccc(N(C)C)cc3[s+]c2c1 [MTC, methyl-thioninium chloride]
31.2

====

Molecular target: assembled tsyn (core aggregation domain of α-synuclein, amino acids 31-109) (Homo sapiens, UniProt P37840)
Construct: The core aggregation domain of α-synuclein (amino acids 31-109) was expressed with an N-terminal polyhistidine tag; polyhistidine (N); made in house; host or cells: E. coli
Assay: Fluorescence assay of disruption of assembled tsyn (thioflavine T / primulin)
Format: biochemical
Settings: tsyn-16 assembled with heparin (50 μg/ml), thioflavine T 1 μM; mean ± SEM (n); read-out: P50 (μM) using thioflavone T
Labelling: IC50 reported below 7 µM becomes rule met; at or above becomes rule not met.

> print(dat)
                                   compound  discrete.label
1  O=c1c(O)c(-c2cc(O)c(O)c(O)c2)oc2cc(O)ccc12 [Robinetin, reference compound]    rule not met
2  CN(C)c1ccc2nc3ccc(N(C)C)cc3[s+]c2c1 [MTC, methyl-thioninium chloride]    rule not met
3  Cc1cc2nc3ccc(N(C)C)cc3[s+]c2cc1N [Tolonium chloride, Tolonium Chloride]        rule met

Take the compound COc1cc(O)c2c(=O)c(O)c(-c3ccc(O)c(O)c3)oc2c1 [Rhamnetin, reference compound] and say whether its IC50 is less than 7 µM.
rule not met

Try the compound CN(C)c1ccc2nc3ccc(N)cc3[s+]c2c1 [Azure A, reference compound]
rule met

Try the compound COc1cc(-c2oc3cc(O)ccc3c(=O)c2O)ccc1O [Geraldol, reference compound]
rule not met

Try the compound O=c1cc(-c2ccccc2)oc2cc(O)c(O)c(O)c12 [Baicalein, reference compound]
rule not met

Try the compound CCN(CC)c1ccc2nc3ccc(N(CC)CC)cc3[s+]c2c1 [ETC, Ethyl-thioninium chloride]
rule not met

====

Biological target: α-synuclein (fsyn binding to solid phase tsyn) (Homo sapiens, UniProt P37840)
Construct: full-length α-synuclein (fsyn) was added in the aqueous phase; The core aggregation domain of α-synuclein (amino acids 31-109) was expressed with an N-terminal polyhistidine tag; polyhistidine (N); made in house; host or cells: E. coli
Experiment: Solid phase ELISA assay for synuclein-synuclein binding
attribute measured: activity in the synuclein-synuclein binding assay

Solved cases (4 shown):
> print(dat)
                                   compound  readout.value
1  Cc1cc2nc3ccc(N(C)C)cc3[s+]c2cc1N [Tolonium chloride, Tolonium Chloride]         active
2  CNc1ccc2nc3ccc(N(C)C)cc3[s+]c2c1 [Azure B, reference compound]       inactive
3  CN(C)c1ccc2nc3ccc(N)cc3[s+]c2c1 [Azure A, reference compound]       inactive
4  CCN(CC)c1ccc2nc3ccc(N(CC)CC)cc3[s+]c2c1 [ETC, Ethyl-thioninium chloride]         active

Here is the next item to consider.
# lookup: activity in the synuclein-synuclein binding assay of CN(C)c1ccc2nc3ccc(N(C)C)cc3[s+]c2c1 [MTC, methyl-thioninium chloride]
active
